Kindly state IC50 for each of the entries shown.
molecular target: human CCR1 (Homo sapiens)

Below, 5 compounds whose answers are already recorded.
Cc1c(NC(=O)N2CCC[C@@H]2c2nnc(C)n2Cc2ccc(Cl)cc2)cccc1C(N)=O [Compound 247] yielded IC50 of 500 to 5000 nM

Cc1ncnc([C@H]2CCCN2C(=O)NC2(c3ccccc3)CC2)c1Cc1ccc(Cl)cc1 [Compound 26] yielded IC50 of 50 to 500 nM

O=C(Nc1ccc(C(F)(F)F)cc1)N1CCC[C@@H]1c1nnnn1Cc1ccc(Cl)cc1 [Compound 53] yielded IC50 of < 50 nM

Cc1nnc([C@H]2CCCN2C(=O)N[C@H]2CCOc3cc(F)ccc32)n1Cc1ccc(Cl)cc1 [Compound 152] yielded IC50 of < 50 nM

Cc1noc(C)c1NC(=O)N1CCC[C@@H]1c1nnc(C)n1Cc1ccc(Cl)nc1 [Compound 366] yielded IC50 of 50 to 500 nM

Please state IC50 for every compound in the list that follows.
1. Cc1nnc([C@H]2CCCN2C(=O)N[C@@H]2c3ccccc3C[C@H]2O)n1Cc1ccc(Cl)cc1 [Compound 403]
2. Cc1cc(C(F)(F)F)cc(C)c1NC(=O)N1CCC[C@@H]1c1ncncc1Cc1ccc(Cl)cc1 [Compound 12]
3. Cc1nnc([C@H]2CCCN2C(=O)Nc2ccc3nonc3c2)n1Cc1ccc(Cl)cc1 [Compound 321]

**Result**
1. 50 to 500 nM
2. < 50 nM
3. 50 to 500 nM

Please state IC50 for every compound in the list that follows.
1. CC[C@@H](NC(=O)N1C[C@@H](O)C[C@@H]1c1nnc(C)n1Cc1ccc(Cl)cc1)c1ccc(C)o1 [Compound 495]
2. Cc1nc(C(F)(F)F)ccc1NC(=O)N1CCC[C@@H]1c1nnc(C)n1Cc1cccc(Cl)c1 [Compound 538]

**Result**
1: 50 to 500 nM; 2: 500 to 5000 nM

Please state IC50 for every compound in the list that follows.
1. Cc1noc(C)c1NC(=O)N1CCC[C@@H]1c1nnc(CO)n1Cc1ccc(Cl)cc1 [Compound 323]
2. Cc1nnc([C@H]2CCCN2C(=O)Nc2ccc(Cl)nc2Cl)n1Cc1ccc(Cl)cc1 [Compound 395]
3. Cc1nnc([C@H]2CCCN2C(=O)Oc2ccc(F)cc2)n1Cc1ccc(Cl)cc1 [Compound 176]
4. Cc1cc(C)c(S(=O)(=O)N(C)C)cc1Nc1c(N2CCC[C@@H]2c2nnc(C)n2Cc2ccc(Cl)cc2)c(=O)c1=O [Compound 609]

**Result**
1: 50 to 500 nM; 2: < 50 nM; 3: 500 to 5000 nM; 4: 50 to 500 nM

---

Biological target: human CCR1 (Homo sapiens)
Sequence (P32246 1-355): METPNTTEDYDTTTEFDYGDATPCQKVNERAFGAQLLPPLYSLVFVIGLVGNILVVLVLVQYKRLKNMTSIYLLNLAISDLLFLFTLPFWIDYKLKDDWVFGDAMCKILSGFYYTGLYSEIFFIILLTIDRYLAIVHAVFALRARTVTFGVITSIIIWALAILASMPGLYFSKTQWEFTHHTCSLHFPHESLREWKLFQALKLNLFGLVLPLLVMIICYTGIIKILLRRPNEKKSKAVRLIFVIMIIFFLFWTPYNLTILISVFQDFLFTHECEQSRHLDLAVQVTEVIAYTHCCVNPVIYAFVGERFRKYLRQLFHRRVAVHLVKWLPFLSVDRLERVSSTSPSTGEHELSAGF
Kindly state IC50 for each of the entries shown.

Please state IC50 for every molecule in the list that follows.
1. O=C(N[C@H]1CCOc2cc(C(F)(F)F)ccc21)N1CCC[C@@H]1c1nnc(C(F)(F)F)n1Cc1ccc(Cl)cc1
2. Cc1nnc([C@H]2CCCN2C(=O)Nc2ccc(Cl)cc2S(C)(=O)=O)n1Cc1ccc(Cl)cc1
3. CNC(=O)c1cc(C)cc(C)c1NC(=O)N1CCC[C@@H]1c1nnc(C)n1Cc1ccc(Cl)cc1
4. Cc1nnc([C@H]2CCCN2/C(=N\C#N)N[C@@H](C)c2cc3ccccc3o2)n1Cc1ccc(Cl)cc1

**Result**
1. 50 to 500 nM
2. < 50 nM
3. < 50 nM
4. < 50 nM

Please state IC50 for every molecule in the list that follows.
1. Cc1c(Cl)nc([C@H]2CCCN2C(=O)Nc2ccc(Cl)cc2F)n1Cc1ccc(Cl)cc1
2. Cc1nnc(C2C3CC3CN2C(=O)Nc2ccc(Cl)cc2F)n1Cc1ccc(Cl)cc1 (stereo not drawn)
3. Cc1cc(C)c(S(=O)(=O)N(C)C)cc1NC(=O)N1CCC[C@@H]1c1nnc(C)n1Cc1ccc(F)cc1

**Result**
1: 50 to 500 nM; 2: 50 to 500 nM; 3: < 50 nM

Please state IC50 for every molecule in the list that follows.
1. Cc1nnc([C@H]2C[C@@H](O)CN2C(=O)Nc2ccc(C(F)(F)F)cc2)n1Cc1ccc(Cl)cc1
2. Cc1nnc([C@H]2CCCN2C(=O)N[C@@H](C)c2ccc(Cl)c(Cl)c2)n1Cc1ccc(Cl)cc1
3. CC[C@H](NC(=O)N1CCC[C@@H]1c1nnc(C)n1Cc1ccc(Cl)cc1)c1c(C)cc(C(F)(F)F)cc1C

**Result**
500 to 5000 nM
< 50 nM
< 50 nM

Data credit: patent US8288371B2
